Biological target: UniProt:P55156
Sequence (P55156 12-887): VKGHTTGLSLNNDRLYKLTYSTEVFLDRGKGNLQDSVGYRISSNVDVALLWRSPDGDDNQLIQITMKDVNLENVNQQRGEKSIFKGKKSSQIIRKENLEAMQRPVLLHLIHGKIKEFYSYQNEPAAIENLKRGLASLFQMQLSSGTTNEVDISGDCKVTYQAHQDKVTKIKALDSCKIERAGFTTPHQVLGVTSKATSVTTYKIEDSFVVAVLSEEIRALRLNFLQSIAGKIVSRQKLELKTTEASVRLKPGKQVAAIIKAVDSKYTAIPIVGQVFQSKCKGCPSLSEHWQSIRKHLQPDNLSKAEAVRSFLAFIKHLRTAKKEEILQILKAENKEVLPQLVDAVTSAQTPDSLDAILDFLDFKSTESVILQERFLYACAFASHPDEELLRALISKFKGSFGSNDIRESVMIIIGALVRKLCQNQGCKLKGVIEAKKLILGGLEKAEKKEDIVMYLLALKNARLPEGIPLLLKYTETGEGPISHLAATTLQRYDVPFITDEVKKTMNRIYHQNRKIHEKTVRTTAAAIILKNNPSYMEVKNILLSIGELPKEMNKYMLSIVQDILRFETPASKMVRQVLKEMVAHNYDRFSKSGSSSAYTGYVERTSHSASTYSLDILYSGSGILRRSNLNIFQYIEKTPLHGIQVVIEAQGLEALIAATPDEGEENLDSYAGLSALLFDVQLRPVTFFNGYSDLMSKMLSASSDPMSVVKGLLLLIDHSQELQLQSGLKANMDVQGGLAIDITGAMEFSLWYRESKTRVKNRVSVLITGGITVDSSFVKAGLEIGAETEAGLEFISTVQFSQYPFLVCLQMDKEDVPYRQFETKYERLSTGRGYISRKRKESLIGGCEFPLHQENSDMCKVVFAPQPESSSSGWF
Sequence (P05307 21-510 partner): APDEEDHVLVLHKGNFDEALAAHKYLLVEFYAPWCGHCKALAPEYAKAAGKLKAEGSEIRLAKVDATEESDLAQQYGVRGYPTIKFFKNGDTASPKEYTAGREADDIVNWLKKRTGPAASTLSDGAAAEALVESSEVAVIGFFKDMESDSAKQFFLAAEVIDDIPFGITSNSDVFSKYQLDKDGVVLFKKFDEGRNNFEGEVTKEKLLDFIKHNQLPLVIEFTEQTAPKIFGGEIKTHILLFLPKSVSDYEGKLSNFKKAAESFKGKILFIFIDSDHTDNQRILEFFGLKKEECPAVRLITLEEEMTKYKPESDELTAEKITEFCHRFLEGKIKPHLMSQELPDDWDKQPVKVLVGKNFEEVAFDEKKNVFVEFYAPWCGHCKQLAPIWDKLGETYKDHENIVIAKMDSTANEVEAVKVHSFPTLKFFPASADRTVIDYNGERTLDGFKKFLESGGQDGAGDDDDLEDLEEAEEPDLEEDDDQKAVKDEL
pIC50: −log10 of the molar value. Structures can show the parent of a compound that is named as a salt.
test_readout: pIC50

Which pIC50 is reported for this molecule? O=C1c2ccccc2CN1C1CCN(CCC(c2ccccc2)c2ccccc2)CC1 [compound A, hydrochloride]
~6.00

Shift focus to the following entry.
Would you kindly share the measured pIC50 for COc1ccccc1N1CCN(CC2CC(=O)c3ccc(F)cc3C2)CC1 (centres unmarked) ?
5.22 to 5.40
